experiment_description: Quantitative highthroughput screen to assess conditional lethalithy of SEM cells grown in RPMI1640 with dialyzed fetal bovine serum (RPMI+ds) (AID 1963884); also: nearly all actives have a fitted effect of over 35% in size
measurement_conditions: SEM B-ALL cells, RPMI+dialyzed FBS, CellTiter-Glo viability, 48 h; series mostly up to 45.8 µM
Inconclusive results are not listed. Calls of active or inactive are those of the source. Calls follow the shape of the dose curve; as a rule, active = well fitted cell-killing curve with a large enough effect; inconclusive = small, poorly fitted or top-dose-only effect, or effect the other way; inactive = no such curve, though single readings can be large or run the other way.
Hello, when you answer, please use one of the following outcomes: active, inactive

input: Answer briefly: the call reported for `O=C(c1ccc(C(=O)N2CCC(N3CCCC3)CC2)c(Nc2ccccc2)c1)N1CCC(N2CCCC2)CC1` in this assay.
output: inactive

input: Answer briefly: the call reported for `N#CC1(c2ccc(NC(=O)c3cccnc3NCc3ccncc3)cc2)CCCC1` in this assay.
output: active

input: Answer briefly: the call reported for `CN(C)c1nc(N(C)C)nc(N(C)C)n1` in this assay.
output: inactive

input: Answer briefly: the call reported for CC1(C)CC(=O)c2c(C(F)(F)F)nn(-c3ccc(C(N)=O)c(NC4CCC(O)CC4)c3)c2C1 (centres undefined) in this assay.
output: active

input: Answer briefly: the call reported for `O=C(O)C1=CO[C@@H](O[C@@H]2O[C@H](CO)[C@H](O)[C@H](O)[C@H]2O)[C@@H]2C(CO)=CC[C@H]12` in this assay.
output: inactive

input: Answer briefly: the call reported for `OC[C@H]1O[C@@H](O[C@H]2[C@@H](O)[C@@](O)(CO)O[C@@H]2CO)[C@H](O)[C@@H](O)[C@@H]1O` in this assay.
output: inactive

input: Answer briefly: the call reported for `CC(C)(O)CNc1nc(Nc2ccnc(C(F)(F)F)c2)nc(-c2cccc(C(F)(F)F)n2)n1` in this assay.
output: active

input: Answer briefly: the call reported for `COc1cc(NC(=O)c2ccc(-c3ccc(Cl)cc3)o2)cc(OC)c1` in this assay.
output: inactive

input: Answer briefly: the call reported for `COc1cccc2c1C(=O)c1c(O)c3c(c(O)c1C2=O)C[C@@](O)(C(=O)CO)C[C@@H]3O[C@H]1C[C@H](N)[C@@H](O)[C@H](C)O1` in this assay.
output: active

input: Answer briefly: the call reported for `CCOC(=O)N1CCN([N+]([O-])=NOc2ccc([N+](=O)[O-])cc2C#N)CC1` in this assay.
output: active

input: Answer briefly: the call reported for `CC(=O)O[C@]1(C(C)=O)CC[C@@H]2[C@@H]3C[C@H](C)C4=CC(=O)CC[C@]4(C)[C@H]3CC[C@@]21C` in this assay.
output: inactive

input: Answer briefly: the call reported for `Nc1ccn([C@@H]2C(F)=C(CO)[C@@H](O)[C@H]2O)c(=O)n1` in this assay.
output: active

input: Answer briefly: the call reported for `C[C@@H]1[C@H](O)[C@@H](C)C=CC=CC=CC=CC=CC=CC=C[C@H](O[C@@H]2O[C@H](C)[C@H](O)[C@H](N)[C@@H]2O)C[C@@H]2O[C@](O)(C[C@@H](O)C[C@@H](O)[C@H](O)CC[C@@H](O)C[C@@H](O)CC(=O)O[C@H]1C)C[C@H](O)[C@@H]2C(=O)O` in this assay.
output: inactive

input: Answer briefly: the call reported for `Cc1cc(Nc2ncnc3ccc(-c4ccc(CNCCS(C)(=O)=O)o4)cc23)ccc1Oc1ccn2ncnc2c1` in this assay.
output: active

input: Answer briefly: the call reported for CN(CCOc1ccc(CC2SC(=O)NC2=O)cc1)c1ccccn1 (centres undefined) in this assay.
output: inactive

input: Answer briefly: the call reported for `CC(C)N(CC[C@H](c1ccccc1)c1cc(CO)ccc1O)C(C)C` in this assay.
output: inactive

input: Answer briefly: the call reported for `CCN1CCN(CC(=O)Nc2ccc(-c3cccc4c(=O)cc(N5CCOCC5)oc34)c3sc4ccccc4c23)CC1` in this assay.
output: active

input: Answer briefly: the call reported for `COc1ccc(CCC(=O)c2c(O)cc(O[C@@H]3O[C@H](CO)[C@@H](O)[C@H](O)[C@@H]3O[C@@H]3O[C@@H](C)[C@H](O)[C@@H](O)[C@@H]3O)cc2O)cc1O` in this assay.
output: inactive

input: Answer briefly: the call reported for `Cc1ccc2c(c1)C(=O)[C@]1(O)CCN(c3ccccc3)C1=N2` in this assay.
output: inactive

input: Answer briefly: the call reported for `Nc1ccn([C@H]2CC[C@@H](CO)O2)c(=O)n1` in this assay.
output: active

input: Answer briefly: the call reported for `C=C(c1ccc(C(=O)O)cc1)c1cc2c(cc1C)C(C)(C)CCC2(C)C` in this assay.
output: inactive

input: Answer briefly: the call reported for CC(=O)O[C@@]12CO[C@H]1C[C@H](O)[C@@]1(C)C(=O)[C@H](O)C3=C(C)[C@@H](OC(=O)C(O)[C@@H](NC(=O)OC(C)(C)C)c4ccccc4)C[C@@](O)([C@@H](OC(=O)c4ccccc4)[C@@H]21)C3(C)C (some centres undefined) in this assay.
output: inactive

input: Answer briefly: the call reported for CCOc1cc(N)c(Cl)cc1C(=O)NCC1CN(Cc2ccc(F)cc2)CCO1 (centres undefined) in this assay.
output: inactive

input: Answer briefly: the call reported for `Cc1ccnc2c1NC(=O)c1cccnc1N2C1CC1` in this assay.
output: inactive

input: Answer briefly: the call reported for O=C(c1ccccc1)c1ccc2n1CCC2C(=O)O (centres undefined) in this assay.
output: active

input: Answer briefly: the call reported for `c1ccc2c(Cc3c[nH]c4ccccc34)c[nH]c2c1` in this assay.
output: active

input: Answer briefly: the call reported for `NS(=O)(=O)c1cc2c(cc1Cl)NC=NS2(=O)=O` in this assay.
output: inactive

input: Answer briefly: the call reported for CNC1[C@H](O)C(O[C@@H]2C(O)C(O[C@H]3O[C@H]([C@@H](C)NC)CC[C@H]3N)[C@@H](N)C[C@H]2N)OC[C@]1(C)O (some centres undefined) in this assay.
output: inactive

input: Answer briefly: the call reported for `O=C(NCCO[N+](=O)[O-])c1cccnc1` in this assay.
output: inactive

input: Answer briefly: the call reported for `O=[N+]([O-])c1cn2c(n1)OC[C@@H](OCc1ccc(OC(F)(F)F)cc1)C2` in this assay.
output: inactive

input: Answer briefly: the call reported for `CC(=O)OC[C@@H]1O[C@@H](n2ccc(=O)[nH]c2=O)[C@H](OC(C)=O)[C@H]1OC(C)=O` in this assay.
output: inactive

input: Answer briefly: the call reported for `C[C@@H]1[C@H](C)CC[C@]2(C(=O)O)CC[C@]3(C)C(=CC[C@@H]4[C@@]5(C)CC[C@H](O)C(C)(C)[C@H]5CC[C@]43C)[C@@H]12` in this assay.
output: inactive

input: Answer briefly: the call reported for `CC(C)(F)C[C@H](N[C@@H](c1ccc(-c2ccc(S(C)(=O)=O)cc2)cc1)C(F)(F)F)C(=O)NC1(C#N)CC1` in this assay.
output: inactive

input: Answer briefly: the call reported for `Nc1ccccc1NC(=O)c1ccc(CNc2nccc(-c3cccnc3)n2)cc1` in this assay.
output: active
